Test system: BDF1 mice, B16 melanoma ip, median survival T/C
Assay: NCI In Vivo Anticancer Drug Screen. Data for tumor model B16 Melanoma (intraperitoneal) in B6D2F1 (BDF1) mice
Conditions: endpoint: median survival time; dose: 400.0 mg/kg/injection; schedule: Q01DX009 (ip); vehicle: Klucel (hydroxypropylcellulose) (HPC); higher = longer survival
Protocol: The antitumor activity of compounds was measured in mice bearing transplantable tumors. Survival or tumor size were measured and the results are expressed as the measurement made in the treated group (T) divided by the measurement made in the vehicle treated control group (C). The tumor model used in this assay is B16 Melanoma (intraperitoneal) in B6D2F1 (BDF1) mice
Toxic doses and inconclusive results are not listed.
Measured property: T/C

CNC(=O)NCc1ccc(C(=O)NC(C)C)cc1    101 % of control
Cc1ccc(NC(=S)N(C)C)cc1C    92 % of control
CCOC(=O)c1ccc(NC(=O)Nc2ccc(Cl)cc2)cc1    100 % of control
O=C(/C=C/c1ccc2c(c1)OCO2)c1ccc2c(c1)OCO2    117 % of control
Cc1ccc(C)n1-c1ccccc1C(=O)O    90 % of control
CC(=O)CC(=O)Nc1cccc(O)c1    86 % of control

====

test system: BDF1 mice, B16 melanoma ip, median survival T/C; assay: NCI In Vivo Anticancer Drug Screen. Data for tumor model B16 Melanoma (intraperitoneal) in B6D2F1 (BDF1) mice; details: endpoint: median survival time; dose: 200.0 mg/kg/injection; schedule: Q01DX009 (ip); vehicle: Klucel (hydroxypropylcellulose) (HPC); higher = longer survival
Toxic doses and inconclusive results are not listed.
Measured T/C by item
Measured property: T/C

CC1(CCl)OCCO1    100 % of control
CCOC(=O)C1CC(c2ccccc2)=NN1c1ccccc1 (stereo not drawn)    100 % of control
CNC(=S)NCc1ccc(C(=O)NC(C)C)cc1    118 % of control
COc1ccc(CSCC(NC(=O)OC(C)(C)C)C(=O)O)cc1 (stereo not drawn)    97 % of control
Cc1cc(C)c(-c2cc(O)c(C)cc2O)c(C)c1    90 % of control
Cc1cc([N+](=O)[O-])c(N)c([N+](=O)[O-])c1    93 % of control
Nc1nc(N)nc(N)n1    100 % of control
CC1=C/C(=N\NS(=O)(=O)c2ccc([N+](=O)[O-])cc2)CC(C)(C)C1    96 % of control
COC(=O)C1(C(=O)OC)C=CCCC1=O    97 % of control
Cc1ccc(Cl)cc1NC(=O)c1ccccc1Cl    98 % of control
Cc1cccc(C)c1NC(=O)Nc1ccc(Cl)cc1    93 % of control
O=C(O)CN(CCN(CC(=O)O)CC(=O)O)CCN(CC(=O)O)CC(=O)O    92 % of control
CCOc1ccccc1NC(=O)Nc1ccccc1OC    98 % of control

====

system: BDF1 mice, B16 melanoma ip, median survival T/C; test: NCI In Vivo Anticancer Drug Screen. Data for tumor model B16 Melanoma (intraperitoneal) in B6D2F1 (BDF1) mice; details: endpoint: median survival time; dose: 50.0 mg/kg/injection; schedule: Q01DX009 (ip); vehicle: saline
Inconclusive results and toxic doses are left out. The calls were made as follows: active = survival T/C of 150% or more; inactive = T/C below 125% in these data.
Classes used: y for active, n for inactive

OCCNCCNc1ccnc2cc(Cl)ccc12    n
CCCNCCN    n
C#CC[N+]12CN3CN(CN(C3)C1)C2    n
COC1OC(CO)C(O)C(NC(=O)N(C)N=O)C1O (configuration not stated)    y
CN(C)C1CC1c1ccccc1 (configuration not stated)    n
CN(C)CC(C(=O)Cc1ccccc1)c1ccccc1 (configuration not stated)    n
O=[N+]([O-])c1cccc2c(S(=O)(=O)O)cccc12    n

Data credit: PubChem BioAssay AID192
